# measurement_description: Protein binding in mouse plasma
# Type: ADME, cell-free
# assay_context: read-out: PPB
outcome_measure: fraction unbound

[[record]]
compound = "C[C@@H]1CN(c2ccc(S(C)(=O)=O)cc2F)CCN1c1nccc(C(=O)NC2C3CC4CC2CC(O)(C4)C3)n1 (stereo partly specified)"
value_reported = 0.01


----------
Reported remaining at 0.5 h values follow for various compounds
# measurement_description: Metabolic stability in mouse liver microsomes assessed as compound remaining after 30 mins
# Type: ADME, Microsome
# assay_context: read-out: Stabilty
outcome_measure: remaining at 0.5 h (%)

[[record]]
compound = "C[C@@H]1CN(c2ccc(C(N)=O)cc2)CCN1c1cccc(C(=O)NC2C3CC4CC2CC(O)(C4)C3)n1 (stereo partly drawn)"
outcome_measure = "remaining at 0.5 h"
value_reported = 57

[[record]]
compound = "C[C@@H]1CN(c2ccc(C(C)(C)O)cc2)CCN1c1nccc(C(=O)NC2C3CC4CC2CC(O)(C4)C3)n1 (stereo partly drawn)"
outcome_measure = "remaining at 0.5 h"
value_reported = 99

[[record]]
compound = "CCS(=O)(=O)c1ccc(N2CCN(c3nccc(C(=O)NC4C5CC6CC4CC(O)(C6)C5)n3)[C@H](C)C2)c(F)c1 (stereo partly drawn)"
outcome_measure = "remaining at 0.5 h"
value_reported = 91

[[record]]
compound = "C[C@@H]1CN(c2ccc(S(C)(=O)=O)cc2)CCN1c1cccc(C(=O)NC2C3CC4CC2CC(O)(C4)C3)n1 (stereo partly drawn)"
outcome_measure = "remaining at 0.5 h"
value_reported = 97

[[record]]
compound = "CNS(=O)(=O)c1ccc(N2CCN(c3cccc(C(=O)NC4C5CC6CC4CC(O)(C6)C5)n3)[C@H](C)C2)cc1 (stereo partly drawn)"
outcome_measure = "remaining at 0.5 h"
value_reported = 83

[[record]]
compound = "C[C@@H]1CN(c2ccc(C(C)(C)O)cc2F)CCN1c1nccc(C(=O)NC2C3CC4CC2CC(O)(C4)C3)n1 (stereo partly drawn)"
outcome_measure = "remaining at 0.5 h"
value_reported = 98

[[record]]
compound = "C[C@@H]1CN(c2ccc(S(C)(=O)=O)cc2F)CCN1c1nccc(C(=O)NC2C3CC4CC2CC(O)(C4)C3)n1 (stereo partly drawn)"
outcome_measure = "remaining at 0.5 h"
value_reported = 98

[[record]]
compound = "CNC(=O)c1ccc(N2CCN(c3cccc(C(=O)NC4C5CC6CC4CC(O)(C6)C5)n3)[C@H](C)C2)cn1 (stereo partly drawn)"
outcome_measure = "remaining at 0.5 h"
value_reported = 66


----------
# measurement_description: Ratio of drug level in liver to plasma of mouse at 10 mg/kg, po measured after 2 hrs post dose
# Type: ADME, organism-based
outcome_measure: Kp at 2 h

[[record]]
compound = "C[C@@H]1CN(c2ccc(S(C)(=O)=O)cc2F)CCN1c1nccc(C(=O)NC2C3CC4CC2CC(O)(C4)C3)n1 (stereo partly specified)"
value_reported = 2.94


----------
# measurement_description: Tmax in rat at 5 mg/kg, po
# Format: ADME, organism-based
# assay_context: in vivo
outcome_measure: Tmax (h)

[[record]]
compound = "C[C@@H]1CN(c2ccc(S(C)(=O)=O)cc2F)CCN1c1nccc(C(=O)NC2C3CC4CC2CC(O)(C4)C3)n1 (stereo partly specified)"
outcome_measure = "Tmax"
value_reported = 1.3


----------
# measurement_description: Volume of distribution at steady state in rat at 1 mg/kg, iv
# Assay type: ADME, organism-based
# assay_context: in vivo, read-out: Vdss
outcome_measure: Vd (L/kg)

[[record]]
compound = "C[C@@H]1CN(c2ccc(S(C)(=O)=O)cc2F)CCN1c1nccc(C(=O)NC2C3CC4CC2CC(O)(C4)C3)n1 (stereo partly specified)"
value_reported = 2.1

